Assign TGI to each entry below.
Test system: A498 renal
measurementDescription: NCI tumour cell line growth inhibition, 48 h

Prompt line: Kindly indicate its recorded TGI. Item: `Cc1cc(C)[n+](CCOc2ccc(/C(=C(/Cl)c3ccccc3)c3ccccc3)cc2)c(C)c1`
Response line: 30.2 µM

Prompt line: Report measured TGI; entry is `Nc1ccc(N=Nc2ccccc2)cc1`
Response line: > 100 µM

Prompt line: Please report the measured TGI for C=CCNC(=O)N(CCC)CCCCC(NC(C)=O)C(=O)NCc1ccccc1 (stereo not given)
Response line: > 100 µM

Prompt line: Annotate the compound `CCCCCCCCCCCCCCCCCC(=O)O[C@H](COC(=O)CCCCCCCCCCC)COC(=O)CCCCCCCCCCCCCCC` with its measured TGI.
Response line: > 100 µM

Prompt line: Give the value of TGI reported for the following: `O=C(O)CC[N+]1=CCC(c2ccccc2)(c2ccccc2)O1`
Response line: > 100 µM

Prompt line: Item `CN(C)C(=S)/N=c1\ss/c(=N\C(=S)N(C)C)n1-c1ccc(Cl)c(Cl)c1` : provide TGI
Response line: > 100 µM

Prompt line: Please look at this compound and report its TGI: `Nc1ccc2[nH]c3c(-c4ccccc4)nccc3c2c1`
Response line: > 100 µM

Prompt line: Answer with the recorded TGI of `O=c1oc2ccccc2c(Nc2ccc3c(c2)Oc2ccccc2O3)c1[N+](=O)[O-]` only.
Response line: 59 µM

Prompt line: Given CC1CCOc2ccc(cc2)C=Nc2ccc(cc2)CCc2ccc(cc2)N=Cc2ccc(cc2)OCC1 (stereo not given) , respond with its TGI.
Response line: > 100 µM

Prompt line: Recall and state the measured TGI for `CN(O)C(=O)c1cccc(Cl)c1` .
Response line: > 100 µM

Prompt line: Give the reported TGI for this compound. COc1cc(C2SCC(=O)N2c2ccc(-c3ccc(-n4c(-c5ccccc5)nc5ccccc5c4=O)cc3)cc2)cc(OC)c1OC (stereo not given)
Response line: > 100 µM

Prompt line: Look up TGI of `CC1(C)O/C(=C\c2ccccc2)C(=O)/C(=C/c2ccccc2)O1` and report it.
Response line: > 100 µM

Prompt line: Read off the recorded TGI for `C=CCCC(=O)CC(O)(C(F)(F)F)C(F)(F)F`
Response line: > 100 µM

Prompt line: Dear colleague, please send me the reported TGI for CC(C)CCCC(C)[C@H]1CCC2[C@H]3C(CC[C@@]21C)[C@@]1(C)CCC=C[C@]12C[C@@H]2[C@@H]3O (stereo not given in full) when you can.
Response line: > 100 µM

Prompt line: Return the recorded TGI value; entry: CC(=O)N1N=C(c2ccc3ccccc3c2O)CC1C(=O)c1ccco1 (stereo not given)
Response line: > 100 µM

Prompt line: Could you please provide reported TGI for `C[C@H](N)C(=O)Nc1ccc(-c2nc3ccccc3s2)cc1` ? Thanks!
Response line: 90 µM

Prompt line: Output measured TGI for this item: `NC1=NS(=O)(=O)Nc2nc(-c3ccc([N+](=O)[O-])o3)[nH]c21`
Response line: > 100 µM

Prompt line: Give TGI for the following compound: O=C(OCC1OC2OC(c3ccccc3)(n3ccc4c([N+](=O)[O-])ccnc43)OC2C1OC(=O)c1ccccc1)c1ccccc1 (stereo not given)
Response line: > 100 µM

Prompt line: Read the entry `COc1ccc2ncn(-c3cc(O[C@H](C)c4ccccc4Cl)c(C(N)=O)s3)c2c1` and write its reported TGI.
Response line: 0.57 µM

Prompt line: Note TGI for the compound shown: `CCc1ccc2oc(-c3cc(O)c(-c4nc5cc(CC)ccc5o4)cc3O)nc2c1`
Response line: > 100 µM
